meta.source: patent US12540141B2

Biological target: SARS-CoV-2 3CL-protease (Severe acute respiratory syndrome coronavirus 2, UniProt P0DTD1)
IC50: recorded values

smiles entry: CC(C)C[C@@H](C(=O)N1C[C@]2(C[C@H]1C(=O)CCl)C(=O)Nc1ccccc12)N(C)C(=O)c1cc2c(F)cc(F)c(F)c2[nH]1
target under test: SARS-CoV-2 3CL-protease (Severe acute respiratory syndrome coronavirus 2, UniProt P0DTD1)
IC50: > 1000 nM
//
smiles entry: COc1ccc(Cl)cc1C(=O)N(C)[C@@H](CC(C)C)C(=O)N1C[C@]2(C[C@H]1C#N)C(=O)Nc1ccccc12
target under test: SARS-CoV-2 3CL-protease (Severe acute respiratory syndrome coronavirus 2, UniProt P0DTD1)
IC50: < 100 nM
//
smiles entry: CC(C)C[C@@H](C(=O)N1C[C@]2(C[C@H]1C#N)C(=O)Nc1ccccc12)N(C)C(=O)c1cccc2ncccc12
target under test: SARS-CoV-2 3CL-protease (Severe acute respiratory syndrome coronavirus 2, UniProt P0DTD1)
IC50: < 100 nM
//
smiles entry: CC(C)C[C@@H](C(=O)N1C[C@]2(C[C@H]1C#N)C(=O)Nc1ccccc12)N(C)C(=O)c1ccc2ccc(Br)cc2c1
target under test: SARS-CoV-2 3CL-protease (Severe acute respiratory syndrome coronavirus 2, UniProt P0DTD1)
IC50: 100 to 1000 nM
//
smiles entry: CN(C(=O)c1cn(CC(F)(F)F)nn1)[C@@H](Cc1ccccc1)C(=O)N1C[C@]2(C[C@H]1C#N)C(=O)Nc1ccccc12
target under test: SARS-CoV-2 3CL-protease (Severe acute respiratory syndrome coronavirus 2, UniProt P0DTD1)
IC50: < 100 nM
//
smiles entry: CN(C(=O)c1cc2ncccc2[nH]1)[C@@H](CC1CC1)C(=O)N1C[C@]2(C[C@H]1C#N)C(=O)Nc1ccc(Cl)cc12
target under test: SARS-CoV-2 3CL-protease (Severe acute respiratory syndrome coronavirus 2, UniProt P0DTD1)
IC50: < 100 nM
//
smiles entry: CC(C)C[C@@H](C(=O)N1C[C@]2(C[C@H]1C#N)C(=O)Nc1ccc(S(C)(=O)=O)cc12)N(C)C(=O)c1cc2c(F)cc(F)cc2[nH]1
target under test: SARS-CoV-2 3CL-protease (Severe acute respiratory syndrome coronavirus 2, UniProt P0DTD1)
IC50: < 100 nM
//
smiles entry: CC(C)C[C@@H](C(=O)N1C[C@]2(C[C@H]1C#N)C(=O)Nc1ccccc12)N(C)C(=O)c1ccc2c(=O)[nH]ccc2c1
target under test: SARS-CoV-2 3CL-protease (Severe acute respiratory syndrome coronavirus 2, UniProt P0DTD1)
IC50: < 100 nM
//
smiles entry: CC(C)C[C@@H](C(=O)N1C[C@]2(C[C@H]1C#N)C(=O)Nc1ccccc12)N(C)C(=O)c1cc(Cl)c2[nH]c(C3CC3)nc2c1
target under test: SARS-CoV-2 3CL-protease (Severe acute respiratory syndrome coronavirus 2, UniProt P0DTD1)
IC50: < 100 nM
//
smiles entry: CC(C)C[C@@H](C(=O)N1C[C@]2(C[C@H]1C#N)C(=O)Nc1ccccc12)N(C)C(=O)c1cccc(OC(F)F)c1
target under test: SARS-CoV-2 3CL-protease (Severe acute respiratory syndrome coronavirus 2, UniProt P0DTD1)
IC50: < 100 nM
//
smiles entry: CN(C(=O)Cc1cnccn1)[C@@H](CC(C)(C)F)C(=O)N1C[C@]2(C[C@H]1C#N)C(=O)Nc1ccc(Cl)cc12
target under test: SARS-CoV-2 3CL-protease (Severe acute respiratory syndrome coronavirus 2, UniProt P0DTD1)
IC50: < 100 nM
//
smiles entry: CC(C)(C)C[C@H](NC(=O)c1cn(CC(F)(F)F)nn1)C(=O)N1C[C@]2(C[C@H]1C#N)C(=O)Nc1ccccc12
target under test: SARS-CoV-2 3CL-protease (Severe acute respiratory syndrome coronavirus 2, UniProt P0DTD1)
IC50: < 100 nM
//
smiles entry: CN(C(=O)Cc1cccc(C(F)(F)F)n1)[C@@H](CC(C)(C)F)C(=O)N1C[C@]2(C[C@H]1C#N)C(=O)Nc1ccc(Cl)cc12
target under test: SARS-CoV-2 3CL-protease (Severe acute respiratory syndrome coronavirus 2, UniProt P0DTD1)
IC50: 100 to 1000 nM
//
smiles entry: C#CCOC[C@H](NC(=O)c1cc2c(OC)cccc2[nH]1)C(=O)N1C[C@]2(C[C@H]1C#N)C(=O)Nc1ccccc12
target under test: SARS-CoV-2 3CL-protease (Severe acute respiratory syndrome coronavirus 2, UniProt P0DTD1)
IC50: < 100 nM
//
smiles entry: CC(C)C[C@@H](C(=O)N1C[C@]2(C[C@H]1C=O)C(=O)Nc1ccccc12)N(C)C(=O)c1cc2c(F)cc(F)c(F)c2[nH]1
target under test: SARS-CoV-2 3CL-protease (Severe acute respiratory syndrome coronavirus 2, UniProt P0DTD1)
IC50: < 100 nM
//
smiles entry: CC(C)C[C@@H](C(=O)N1C[C@]2(C[C@H]1C#N)C(=O)Nc1ccccc12)N(C)C(=O)c1ccc2ncccc2c1F
target under test: SARS-CoV-2 3CL-protease (Severe acute respiratory syndrome coronavirus 2, UniProt P0DTD1)
IC50: < 100 nM
//
smiles entry: CC(C)C[C@@H](C(=O)N1C[C@]2(C[C@H]1C#N)C(=O)Nc1ccccc12)N(C)C(=O)c1cc2ccc(=O)[nH]c2cc1OC1CC1
target under test: SARS-CoV-2 3CL-protease (Severe acute respiratory syndrome coronavirus 2, UniProt P0DTD1)
IC50: < 100 nM
//
smiles entry: CN(C(=O)c1cc2cccnc2[nH]1)[C@@H](CC(C)(C)F)C(=O)N1C[C@]2(C[C@H]1C#N)C(=O)Nc1ccc(Cl)cc12
target under test: SARS-CoV-2 3CL-protease (Severe acute respiratory syndrome coronavirus 2, UniProt P0DTD1)
IC50: < 100 nM
//
smiles entry: [2H]C([2H])([2H])N(C(=O)c1cn(C(C)(C)C)nn1)[C@@H](CCCC)C(=O)N1C[C@]2(C[C@H]1C#N)C(=O)Nc1ccccc12
target under test: SARS-CoV-2 3CL-protease (Severe acute respiratory syndrome coronavirus 2, UniProt P0DTD1)
IC50: < 100 nM
//
smiles entry: CC(C)C[C@@H](C(=O)N1C[C@]2(C[C@H]1C#N)C(=O)Nc1ccccc12)N(C)C(=O)c1cc2cccnc2cc1OC(F)F
target under test: SARS-CoV-2 3CL-protease (Severe acute respiratory syndrome coronavirus 2, UniProt P0DTD1)
IC50: < 100 nM
//
smiles entry: CC(C)C[C@@H](C(=O)N1C[C@]2(C[C@H]1C#N)C(=O)Nc1ccccc12)N(C)C(=O)c1cccc(-c2ccccc2F)c1
target under test: SARS-CoV-2 3CL-protease (Severe acute respiratory syndrome coronavirus 2, UniProt P0DTD1)
IC50: 100 to 1000 nM
//
smiles entry: CN(C(=O)C1(c2ccccn2)CC1)[C@@H](CC(C)(C)F)C(=O)N1C[C@]2(C[C@H]1C#N)C(=O)Nc1ccc(Cl)cc12
target under test: SARS-CoV-2 3CL-protease (Severe acute respiratory syndrome coronavirus 2, UniProt P0DTD1)
IC50: < 100 nM
//
smiles entry: CC(C)C[C@@H](C(=O)N1C[C@]2(C[C@H]1C#N)C(=O)Nc1ccccc12)N(C)C(=O)c1cc2ccc(C(C)C)nc2[nH]1
target under test: SARS-CoV-2 3CL-protease (Severe acute respiratory syndrome coronavirus 2, UniProt P0DTD1)
IC50: < 100 nM
//
smiles entry: CC(C)C[C@H](NC(=O)O[C@@H](c1ccccc1)C(F)(F)F)C(=O)N1C[C@]2(C[C@H]1C#N)C(=O)Nc1ccc(F)cc12
target under test: SARS-CoV-2 3CL-protease (Severe acute respiratory syndrome coronavirus 2, UniProt P0DTD1)
IC50: < 100 nM
//
smiles entry: Cc1cccc(C(F)(F)C(=O)N(C)[C@@H](CC(C)(C)F)C(=O)N2C[C@]3(C[C@H]2C#N)C(=O)Nc2ccc(Cl)cc23)n1
target under test: SARS-CoV-2 3CL-protease (Severe acute respiratory syndrome coronavirus 2, UniProt P0DTD1)
IC50: < 100 nM
